experiment: yeast display, Sf9 membrane polyspecificity reagent, FACS + sequencing; frameworks hold sequencing errors
VALUE_TYPE: polyreactivity (PSR sort gate)

Below, each entry is followed by its recorded polyreactivity (PSR sort gate) result.
PRIMARY_SEQUENCE	polyreactivity (PSR sort gate)
QVQLVESGGGLVQAGGSLRLSCAASGSTFGHYGMGWYRQAPGKERELVAAISYSGGSTSYADSVKGRFTISRDNAKNTVYLQMNSLKPEDTAVYYCATVRKRRYDYWGQGTQVTVSS	low polyreactivity
QVQLVESGGGLVQAGGSLRLSCAASGRTLPSYSMGCYREAPGKERELFAAITGSGGRTYYADSVKGRFTISRDNAKNSVYLQMNSLKPEDTAVYYCNAYSRTWYARSYYYWGQGTQVTVSS	high polyreactivity
QVQLVESGGALVQAGGSLRLSCAASGSIFSRNAMGWYRTAPGKERELVAGISTGGSTNYADSVKGRFTISRDNAKNTVYLQMTSLKPEDTAVYYCAAPLAYEGDYWGQGTQVTVSS	low polyreactivity
QVQHVESGGGLVQAGGSLRLSCAASGLIFRYYVKGWYRPAPGKERDLDAGITSSGGYTFYAESVKGRFTISRDNAKNTVYLQMNSLKPDDTAVYYCAARRPYAYARSSRYDYWGQGTQVSVSS	high polyreactivity

Give polyreactivity (PSR sort gate) for all sequences that follow.
1. QVQLVESGGGLVQAGGSLRLSCAASGSTFDVYTMGWYRQAPGKERELVATISGDDGSTYYADSEKGRFTISRDNAKNTVSLQMNSLKPEDTAVYYCAADYGGFPNYYSTGDYWGQGTQVTVSS
2. QVQLVESGGGLVQAGGSLRLICAASGSTFWSNAMGWYRQAPGKERELVATINSGDGTNYADSVKGRFTISRDNAKNTVYLQMNSLKPEDTAVYYCAAEKYYPWGWYTYDYWGQGTQVTVSS
3. QVQLVESGGGLVQAGGSLRLSCAASGRTFSVNAMGWYRQAPGNERELVAARRTGDSTNYADSVKGRFTFSRDNAKYTVYLPMNSLKPEDTSVDYCAADVWGSSAQRGWRKYYYWGQGTQVTVSS
4. QVQLVDSVGRLVQAGGSLRLSCAASGSTFVGYAMGWYRHAPGKEREMDADIDSIGGSTYYADSVKGRFTISRDNAKNTVYLQMNILKPEDTAVYYCAARRYDTALVLYDYWGQGTQVTVSS
5. QLQLQESGGGLVLAGGSLRLSCSASGNISVYGSMCWYRQAPGKEREFVATIDPGTNTNYADSVKDRFTISRDNAKNTVYLQMNSLKPEDTAVSYCAVEAGSDWPYRYRGQGTQVTVSS
6. QVQLVESGGGLVQAGGSLRLSCAASGRTFFINTMGWYRQAPGKEREFVAAITWSAGRTYYADSVKGRFTISRDNAKNTVYLQMNSLKPEDTAVYYCAAALHGHTFPFYYWGQGTLVTVSS
7. QVQLVESGGGLVQAGGSLRLSCAASGRIFWDIDMGWYRQAPGKEWELVAAISRRGGSTSYADSVKGRFTISRDNAKTTVYLQINSLKPEDTAVYYCNVRTRWTRVRRYDYWGQGTQVTVSS

Solution:
1: low polyreactivity; 2: high polyreactivity; 3: high polyreactivity; 4: low polyreactivity; 5: low polyreactivity; 6: low polyreactivity; 7: high polyreactivity

====

experiment: yeast display, Sf9 membrane polyspecificity reagent, FACS + sequencing; frameworks hold sequencing errors
VALUE_TYPE: polyreactivity (PSR sort gate)

Below, each entry is followed by its recorded polyreactivity (PSR sort gate) result.
PRIMARY_SEQUENCE	polyreactivity (PSR sort gate)
QVQLVESGGGVVQAGGSLRLSCAASGMGWYRQAPGKERELVATITTGGTYADSVKGRFTISRDNAKNTVYLQMNSLKPEDTAVYYCAADGLGSVYYLRYNYWGQGTQVTVSS	low polyreactivity
QVQLVESGGGLDQAGGSLRLSCAASGLIFRRYAMGWYRQAPGKERELVAAISRSGGSTYYADSVKGRFTISRDNAKNTVYLQMNSLKPEDTAVYYCAARTRSDNSYHGGEYWGQGTQVTVSS	high polyreactivity
QVQLVESGGGLVQAGGSLRLSCAASGITFVGNAMGGYRQATGKERELVAVIRGNGGSTYYADSVKGRFTISRDNAKNTVYLQMNSLKPEDTAVYYCAAAAYYADFDYLGQGTQVTVSS	low polyreactivity
QVQLVESGGGLVQAGGSLRLSCAASGRTFIGYAMGWYRQAPGKERELVAAISSRGGRTYYADSVKGRFTISRDNAKNTVYLQMNSLKPEDTAVYYCAAGRVKHSGYDYWGQGTQVTVSS	high polyreactivity
QVQLVESGGGLVQAGGSLRLSCAASGSTFYPKAKAWNRQAPGKERELVAGISSGGGTYYADSVKGRFTISRDNAKNTVYLQMNSLKREDTAVYYCNAYFLSSSLDYWGQGTQVTVSS	low polyreactivity

Give polyreactivity (PSR sort gate) for all sequences that follow.
1. QVQLVESGGGLVQAGGSLRLSCAASGSIFPDNTMGWYRQAPGKERELVAAIDGRGGTTYYADSVKGRFTISRDNAKNTVYLQMNSLKPEDTAVYYCARDIGHSARYDYWGQGTQVTVSS
2. QVQLVESGGGLVQAGGSLRLSCAASGSIFGPYAMGWYRQAPGKERELVAAITWSGDSTYYADSVKGRFTISRDNAKNTVYLQMNSLKTEDTAVYYCAAETFIWGQGTQVTVSS
3. QVQLVESGGGLVQAGGSLRLSCAASGFIFDDYAMGWYRQAPGKERELVAAISASGGRTFYADSVKGRFTISRDNAKNTVYLQMNSLKPEDTAVYYCATIVDTYVFRYYYWGQGTQVTVSS
4. QVQLVESGGGLVQAGGSLRLSCAASGSIFRYYDMGWYRQAPGKERELVAAISYSDGRTYYADSVKGRFTISRDNAKNTVYLQMNSLKPEDTAVYYCAAETLYVSPYFFVVQYDYWGQGTKVTVSS
5. QVQLVESGGGLDQAGGSLRLTCAPYGLISDRNAIGWYRQAPGKERDLVASIRSGGSTYYADSVKGRFTFSRDNAKNTVYLEMNSLKPEDTAVYYCAAGGGHTPVSYYLVPYMDYWGQGTQVTVAS
6. QVQLVESGGGLVQAGGSLRLSCAASGSNFHPYAMGWYRPAPGKEREFVAAITFRGSTYYADSVKGRFTISRDNAKNTVYLQLNSLKPEDTAVYYCAARYNIFRRGSRNYDYWGQGTEVTVSS

Solution:
1. low polyreactivity
2. low polyreactivity
3. high polyreactivity
4. high polyreactivity
5. low polyreactivity
6. high polyreactivity

Reference for the values: the nanobody polyreactivity screen of Harvey et al. (2022)
